- Tested on: BT-549
- assay notes: NCI tumour cell line growth inhibition, 48 h
The source made the active and inactive calls. Cut-off read from the data, not from the text of the source: active = GI50 up to about 1.1 µM and inactive = higher.
GI50 reference
readout label: GI50

| smiles text | readout label | measured |
| --- | --- | --- |
| O=C(O)/C(=C/C(=O)c1ccc(Cl)cc1)NNc1ccc([N+](=O)[O-])cc1[N+](=O)[O-] | GI50 | 23.2 µM (inactive) |
| COc1ccc(OC)c(CNc2ccc(C(=O)O)cc2)c1 | GI50 | > 100 µM (inactive) |
| C[N+](C)(C)C1=NNC2=Nc3ccccc3SC2=C1 | GI50 | 28.6 µM (inactive) |
| O=C(CSc1nc2ccccc2c2ccccc12)c1ccccc1 | GI50 | > 100 µM (inactive) |
